Assay: Pharmacokinetics in rats
Assay type: in vivo
Settings: male SD rats, tail vein injection, 0.5 mg/kg; read-out: Initial concentration C0
quantity_kind: C0 (nM)
Provide only the numeric value, understood in nM.

Recorded C0 for C[C@@H]1CCC[C@@H](c2ccc(-c3cc(Cl)ccc3-n3cc(Cl)nn3)oc2=O)c2cc(ccn2)-c2c(cnn2C(F)F)NC1=O (single isomer, unassigned) , please?
1800

Hey, just so you know, these numbers are from patent US12018027B2.
